protocolDetails: UKN2_HCS_IMR90_cell_viability: Viability Assessment in the University of Konstanz (UKN) Leist Lab Neural Crest Cell Migration Assay in human induced IMR90 Pluripotent Stem Cells (UKN2) (AID 2284233);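 further: viability of neural crest cells differentiated from IMR90 iPSC measured by calcein-AM fluorescence imaging; cells exposed to compound for 24 h after a 24 h migration phase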
The source made the active and inactive calls. How the source made its calls: active means hit-call score of the fitted dose curve at least 0.9, where 1 is the maximum; inactive means score below 0.9.
Parameter call: string, one of 1.0 = active, 0.0 = inactive

[ask] Field: outcome | Entry: C=CC1(C)OC(=O)N(c2cc(Cl)cc(Cl)c2)C1=O (stereo not drawn)
[reply] 0.0

[ask] Field: outcome | Entry: CC(C)(C)c1ccc(CSc2cnn(C(C)(C)C)c(=O)c2Cl)cc1
[reply] 0.0

[ask] Field: outcome | Entry: CN(C)C(=S)SSC(=S)N(C)C
[reply] 1.0

[ask] Field: outcome | Entry: CO/C=C(/C(=O)OC)c1ccccc1Oc1cc(Oc2ccccc2C#N)ncn1
[reply] 0.0

[ask] Field: outcome | Entry: COC(=O)N(OC)c1ccccc1COc1ccn(-c2ccc(Cl)cc2)n1
[reply] 1.0

[ask] Field: outcome | Entry: N#Cc1nn(-c2c(Cl)cc(C(F)(F)F)cc2Cl)c(N)c1S(=O)C(F)(F)F (stereo not drawn)
[reply] 1.0

[ask] Field: outcome | Entry: CCCCNC(=O)n1c(NC(=O)OC)nc2ccccc21
[reply] 1.0

[ask] Field: outcome | Entry: Cc1ccc(-c2c(Cl)nc(C#N)n2S(=O)(=O)N(C)C)cc1
[reply] 1.0

###

Read-out: Intercellular Adhesion Molecule 1 (ICAM1), ICAM1 (gene 3383)
protocolDetails: BSK_KF3CT_ICAM1: BioMAP Diversity Plus: KF3CT Assay for Intercellular Adhesion Molecule 1 (ICAM1) Biomarker Activity (AID 2283067)
conditions: primary human keratinocytes with fibroblasts; actives raise or lower the signal
Calls of active or inactive are those of the source. Rule for the calls: active = hit-call score of the fitted dose curve at least 0.9, where 1 is the maximum; inactive = score below 0.9.
Parameter call: string, one of Y (active), N (inactive)

[ask] Field: outcome | Entry: CCCCNC(=O)n1c(NC(=O)OC)nc2ccccc21
[reply] N

[ask] Field: outcome | Entry: CC(C)Oc1cc(-n2nc(C(C)(C)C)oc2=O)c(Cl)cc1Cl
[reply] N

[ask] Field: outcome | Entry: C=CCC1=C(C)[C@@H](OC(=O)[C@@H]2[C@@H](C=C(C)C)C2(C)C)CC1=O
[reply] N

[ask] Field: outcome | Entry: CCCCOC(=O)c1ccccc1C(=O)OCCCC
[reply] N

[ask] Field: outcome | Entry: COC(=O)N(OC)c1ccccc1COc1ccn(-c2ccc(Cl)cc2)n1
[reply] N

[ask] Field: outcome | Entry: CN(C)C(=S)SSC(=S)N(C)C
[reply] Y

[ask] Field: outcome | Entry: CCNc1nc(Cl)nc(NCC)n1
[reply] N

[ask] Field: outcome | Entry: CNC(=O)ON=CC(C)(C)SC
[reply] N

[ask] Field: outcome | Entry: CCNc1nc(Cl)nc(NC(C)C)n1
[reply] N

[ask] Field: outcome | Entry: Cc1c(F)c(F)c(COC(=O)C2C(/C=C(\Cl)C(F)(F)F)C2(C)C)c(F)c1F (configuration not stated)
[reply] N

[ask] Field: outcome | Entry: O=C(Nc1ccccc1)Nc1ccnc(Cl)c1
[reply] N

[ask] Field: outcome | Entry: C=CC1(C)OC(=O)N(c2cc(Cl)cc(Cl)c2)C1=O (configuration not stated)
[reply] N

###

protocolDetails: ATG_PBREM_CIS: Attagene CIS-FACTORIAL HepG2 Assay for human Phenobarbital-responsive Enhancer Module (PBREM) (AID 2282955)
conditions: HepG2 PBREM cis-reporter, Attagene multiplexed transcription; actives raise or lower the signal
The source made the active and inactive calls. Rule for the calls: active = hit-call score of the fitted dose curve at least 0.9, where 1 is the maximum; inactive = score below 0.9.
Parameter call: string, one of active, inactive

[ask] Field: outcome | Entry: CS/C(C)=N/OC(=O)N(C)SN(C)C(=O)O/N=C(\C)SC
[reply] inactive

[ask] Field: outcome | Entry: CCON=C(CC)C1=C(O)CC(c2c(C)cc(C)cc2C)CC1=O (centres undefined)
[reply] inactive

[ask] Field: outcome | Entry: COc1nc(C)nc(NC(=O)NS(=O)(=O)c2ccccc2CCC(F)(F)F)n1
[reply] inactive

[ask] Field: outcome | Entry: C=CCC1=C(C)[C@@H](OC(=O)[C@@H]2[C@@H](C=C(C)C)C2(C)C)CC1=O
[reply] active

[ask] Field: outcome | Entry: CC(C)C1(C)N=C(c2nc3ccccc3cc2C(=O)O)NC1=O (centres undefined)
[reply] inactive

[ask] Field: outcome | Entry: CNC(=S)S
[reply] inactive

[ask] Field: outcome | Entry: COP(N)(=O)SC (centres undefined)
[reply] inactive

[ask] Field: outcome | Entry: CCCCC(CC)COC(=O)c1ccccc1C(=O)OCC(CC)CCCC (centres undefined)
[reply] inactive

[ask] Field: outcome | Entry: COP(=S)(OC)Oc1nc(Cl)c(Cl)cc1Cl
[reply] inactive

[ask] Field: outcome | Entry: Cc1ccc(-c2c(Cl)nc(C#N)n2S(=O)(=O)N(C)C)cc1
[reply] active

[ask] Field: outcome | Entry: COC(=O)C=C(C)OP(=O)(OC)OC
[reply] inactive

[ask] Field: outcome | Entry: CNC(=O)ON=CC(C)(C)SC
[reply] inactive

[ask] Field: outcome | Entry: CCNc1nc(Cl)nc(NCC)n1
[reply] inactive

[ask] Field: outcome | Entry: N#CC(CCc1ccc(Cl)cc1)(Cn1cncn1)c1ccccc1 (centres undefined)
[reply] inactive

[ask] Field: outcome | Entry: CCOP(=S)(OCC)SCn1c(=O)oc2cc(Cl)ccc21
[reply] active

[ask] Field: outcome | Entry: C#CCOS(=O)OC1CCCCC1Oc1ccc(C(C)(C)C)cc1 (centres undefined)
[reply] active

[ask] Field: outcome | Entry: CCOC(=O)C(Cl)Cc1cc(-n2nc(C)n(C(F)F)c2=O)c(F)cc1Cl (centres undefined)
[reply] inactive

[ask] Field: outcome | Entry: COc1ccc(C(c2ccc(OC)cc2)C(Cl)(Cl)Cl)cc1
[reply] inactive

[ask] Field: outcome | Entry: CCCCNC(=O)n1c(NC(=O)OC)nc2ccccc21
[reply] inactive

All figures here come from PubChem BioAssay (EPA / NIEHS).
